Numbers sourced from patent US6358984B1.

system tested: angiotensin II receptor (Oryctolagus cuniculus, UniProt P34976)
Sequence (P34976 1-359): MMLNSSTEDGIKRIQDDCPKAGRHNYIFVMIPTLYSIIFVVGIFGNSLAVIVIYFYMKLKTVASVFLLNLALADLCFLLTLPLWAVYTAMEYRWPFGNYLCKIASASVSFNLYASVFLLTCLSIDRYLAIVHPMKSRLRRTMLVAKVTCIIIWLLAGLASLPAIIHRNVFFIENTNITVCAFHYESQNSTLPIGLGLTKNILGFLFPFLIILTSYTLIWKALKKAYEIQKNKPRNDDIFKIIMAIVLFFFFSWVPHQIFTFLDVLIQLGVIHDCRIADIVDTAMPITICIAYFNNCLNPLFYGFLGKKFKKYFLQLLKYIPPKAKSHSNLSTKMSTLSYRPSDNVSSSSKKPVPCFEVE
property: log10 IC50 (log10 of the value in nM)
Note: values are log10 of IC50 expressed in nM.

{"columns": ["compound", "reported measurement"],
 "data": [
  ["CC(C)c1nc(C(C)C)n(Cc2ccc(-c3ccccc3/C=C3\\OC(=O)C=C3O)cc2)n1 [Compound 2b]", 2.97],
  ["CCCCc1nc(-c2cccs2)nn1Cc1ccc(-c2ccccc2/C=C2\\OC(=O)C=C2O)cc1 [Compound 2k]", 2.49],
  ["CCCCc1nc(-c2ccc(F)cc2)nn1Cc1ccc(-c2ccccc2/C=C2\\OC(=O)C=C2O)cc1 [Compound 2g]", 2.84]
]}

Field log10 IC50 (system: angiotensin II receptor (Oryctolagus cuniculus, UniProt P34976)) for entry CCCCc1nc(CCc2ccccc2)nn1Cc1ccc(-c2ccccc2/C=C2\OC(=O)C=C2O)cc1 [Compound 2f] = 1.04

Field log10 IC50 (system: angiotensin II receptor (Oryctolagus cuniculus, UniProt P34976)) for entry CCCCc1nc(C2CC2)nn1Cc1ccc(-c2ccccc2/C=C2\NC(=O)CC2=O)cc1 [Compound 1c] = 3.30

Field log10 IC50 (system: angiotensin II receptor (Oryctolagus cuniculus, UniProt P34976)) for entry CCCCc1nnc(CCCC)n1Cc1ccc(-c2ccccc2/C=C2\NC(=O)CC2=O)cc1 [Compound 19a] = 3.90
